System: total ATXN3 protein
Experiment: ATXN3 Total Protein Assay
Type: cell-based
Settings: Human neuroblastoma SK-N-MC cells, incubation 48 hours, MSD assay; read-out: ATXN3 Protein Potency IC50
Some compounds, each annotated with its measured IC50.

A selection of reference data follows.
Cc1csc2c(NCc3ccco3)nnnc12: ≥ 10 µM
Cc1c(C[C@H](C)N)sc2c(NCc3cccs3)nnnc12: 0.501 to 5 µM
Cc1csc2c(NCc3cccs3)nnnc12: ≥ 10 µM

Task item: # query: IC50 of entry Cc1c(C[C@H](C)N)sc2c(NCc3ccco3)nnnc12
Reply: 0.501 to 5 µM
